Each recorded value in this set is attributed to paper PMC8698657.

- assay_name: Trans-enterocyte transport of CA in Caco-2 cell monolayer
- Format: in vitro ADME, human
- applied_conditions: human, Caco-2, CA 50 and 75 μM, except 50 μM after 3-hour incubation; read-out: efflux ratios
recorded_endpoint: efflux ratio

Task: Recorded efflux ratio of CC(C)c1cc2c(c(O)c1O)[C@@]1(C(=O)O)CCCC(C)(C)[C@@H]1CC2 [CA, Carnosic acid] , please.
Output: < 1

---

- assay_name: Effect of verapamil, PEG 400 and EDTA on trans-enterocyte transport of CA
- Assay type: in vitro ADME, human
- applied_conditions: human, Caco-2, with verapamil 100 μmoL/L, CA 75 μM, 1.5 h, + 100 μmoL/L verapamil; read-out: Papp AP to BL
recorded_endpoint: Papp A→B at 1.5 h, 75 μM (×10⁻⁶ cm/s)
Lab book: enter the figure in ×10⁻⁶ cm/s, no units written.

Task: Recorded Papp A→B at 1.5 h, 75 μM of CC(C)c1cc2c(c(O)c1O)[C@@]1(C(=O)O)CCCC(C)(C)[C@@H]1CC2 , please.
Output: 0.85

---

- assay_name: Trans-enterocyte transport of CA in Caco-2 cell monolayer
- Assay type: in vitro ADME, human
- applied_conditions: human, Caco-2; CA 75 μM, 1.0 h
recorded_endpoint: efflux ratio at 1 h, 75 μM
I only need the number, thanks.

Task: Recorded efflux ratio at 1 h, 75 μM of CC(C)c1cc2c(c(O)c1O)[C@@]1(C(=O)O)CCCC(C)(C)[C@@H]1CC2 [CA, Carnosic acid] , please.
Output: 0.79

---

- assay_name: Effect of verapamil, PEG 400 and EDTA on trans-enterocyte transport of CA
- Assay type: in vitro ADME, human
- applied_conditions: human, Caco-2, CA 75 μM, 0.5 h, + 5 mmoL/L EDTA; read-out: Papp AP to BL
recorded_endpoint: Papp A→B at 0.5 h, 75 μM (×10⁻⁶ cm/s)
Lab book: enter the figure in ×10⁻⁶ cm/s, no units written.

Task: Recorded Papp A→B at 0.5 h, 75 μM of CC(C)c1cc2c(c(O)c1O)[C@@]1(C(=O)O)CCCC(C)(C)[C@@H]1CC2 , please.
Output: 0.92

---

- assay_name: Trans-enterocyte transport of CA in Caco-2 cell monolayer
- Format: in vitro ADME, human
- applied_conditions: human, Caco-2, CA 50 μM, Average of 0.5-3.0 h
recorded_endpoint: efflux ratio at 50 μM
I only need the number, thanks.

Task: Recorded efflux ratio at 50 μM of CC(C)c1cc2c(c(O)c1O)[C@@]1(C(=O)O)CCCC(C)(C)[C@@H]1CC2 , please.
Output: 0.62

---

- assay_name: Effect of verapamil, PEG 400 and EDTA on trans-enterocyte transport of CA
- Assay type: in vitro ADME, human
- applied_conditions: human, Caco-2, with verapamil 100 μmoL/L, CA 50 μM, Average of 0.5-3.0 h, + 100 μmoL/L verapamil; read-out: Papp AP to BL
recorded_endpoint: Papp A→B at 50 μM (×10⁻⁶ cm/s)
Lab book: enter the figure in ×10⁻⁶ cm/s, no units written.

Task: Recorded Papp A→B at 50 μM of CC(C)c1cc2c(c(O)c1O)[C@@]1(C(=O)O)CCCC(C)(C)[C@@H]1CC2 , please.
Output: 1.5

---

- assay_name: Trans-enterocyte transport of CA in Caco-2 cell monolayer
- Format: in vitro ADME, human
- applied_conditions: human, Caco-2, CA 75 μM, 1.5 h, CA alone; read-out: Papp AP to BL
recorded_endpoint: Papp A→B at 1.5 h, 75 μM

Task: Recorded Papp A→B at 1.5 h, 75 μM of CC(C)c1cc2c(c(O)c1O)[C@@]1(C(=O)O)CCCC(C)(C)[C@@H]1CC2 [CA, Carnosic acid] , please.
Output: 0.83 ×10⁻⁶ cm/s

---

- assay_name: Effect of verapamil, PEG 400 and EDTA on trans-enterocyte transport of CA
- Format: in vitro ADME, human
- applied_conditions: human, Caco-2, CA 50 μM, 3.0 h, + 5% PEG 400; read-out: Papp AP to BL
recorded_endpoint: Papp A→B at 3 h, 50 μM (×10⁻⁶ cm/s)
Lab book: enter the figure in ×10⁻⁶ cm/s, no units written.

Task: Recorded Papp A→B at 3 h, 50 μM of CC(C)c1cc2c(c(O)c1O)[C@@]1(C(=O)O)CCCC(C)(C)[C@@H]1CC2 , please.
Output: 2.34

---

- assay_name: Effect of verapamil, PEG 400 and EDTA on trans-enterocyte transport of CA
- Format: in vitro ADME, human
- applied_conditions: human, Caco-2, with verapamil 100 μmol/L, CA 75 μM, 3.0 h, + 100 μmoL/L verapamil; read-out: Papp AP to BL
recorded_endpoint: Papp A→B at 3 h, 75 μM (×10⁻⁶ cm/s)
Lab book: enter the figure in ×10⁻⁶ cm/s, no units written.

Task: Recorded Papp A→B at 3 h, 75 μM of CC(C)c1cc2c(c(O)c1O)[C@@]1(C(=O)O)CCCC(C)(C)[C@@H]1CC2 [CA, Carnosic acid] , please.
Output: 0.69

---

- assay_name: Effect of verapamil, PEG 400 and EDTA on trans-enterocyte transport of CA
- Assay type: in vitro ADME, human
- applied_conditions: human, Caco-2, with verapamil 100 μmoL/L, CA 75 μM, 0.5 h, + 100 μmoL/L verapamil; read-out: Papp AP to BL
recorded_endpoint: Papp A→B at 0.5 h, 75 μM (×10⁻⁶ cm/s)
Lab book: enter the figure in ×10⁻⁶ cm/s, no units written.

Task: Recorded Papp A→B at 0.5 h, 75 μM of CC(C)c1cc2c(c(O)c1O)[C@@]1(C(=O)O)CCCC(C)(C)[C@@H]1CC2 , please.
Output: 1.12

---

- assay_name: Effect of verapamil, PEG 400 and EDTA on trans-enterocyte transport of CA
- Format: in vitro ADME, human
- applied_conditions: human, Caco-2, CA 100 μM, 3.0 h, + 5% PEG 400; read-out: Papp AP to BL
- Experimental: CA was dissolved in HBSS solution at 50, 75, and 100 μM. The HBSS solution containing CA combined with 0.5% Tween 80, 5 mmol/L EDTA or 5% PEG 400 was prepared. The cumulative migration (Qr), apparent permeability coefficient (Papp), and the Papp value of bi-direction transport of CA were calculated according to formulas. […]
recorded_endpoint: Papp A→B at 3 h, 100 μM (nm/s)
Lab book: enter the figure in nm/s, no units written.

Task: Recorded Papp A→B at 3 h, 100 μM of CC(C)c1cc2c(c(O)c1O)[C@@]1(C(=O)O)CCCC(C)(C)[C@@H]1CC2 , please.
Output: 21.4

---

- assay_name: Trans-enterocyte transport of CA in Caco-2 cell monolayer
- Type: in vitro ADME, human
- applied_conditions: human, Caco-2, CA 50 μM, 2.5 h
recorded_endpoint: Papp B→A at 2.5 h, 50 μM (×10⁻⁶ cm/s)
Lab book: enter the figure in ×10⁻⁶ cm/s, no units written.

Task: Recorded Papp B→A at 2.5 h, 50 μM of CC(C)c1cc2c(c(O)c1O)[C@@]1(C(=O)O)CCCC(C)(C)[C@@H]1CC2 , please.
Output: 0.56

---

- assay_name: Trans-enterocyte transport of CA in Caco-2 cell monolayer
- Type: in vitro ADME, human
- applied_conditions: human, Caco-2, CA 100 μM, 2.0 h; read-out: Papp AP-BL
recorded_endpoint: Papp A→B at 2 h, 100 μM (×10⁻⁶ cm/s)
Lab book: enter the figure in ×10⁻⁶ cm/s, no units written.

Task: Recorded Papp A→B at 2 h, 100 μM of CC(C)c1cc2c(c(O)c1O)[C@@]1(C(=O)O)CCCC(C)(C)[C@@H]1CC2 , please.
Output: 0.87

---

- assay_name: Effect of verapamil, PEG 400 and EDTA on trans-enterocyte transport of CA
- Type: in vitro ADME, human
- applied_conditions: human, Caco-2, CA 75 μM, Average of 0.5-3.0 h, + 5 mmoL/L EDTA; read-out: Papp AP to BL
recorded_endpoint: Papp A→B at 75 μM (×10⁻⁶ cm/s)
Lab book: enter the figure in ×10⁻⁶ cm/s, no units written.

Task: Recorded Papp A→B at 75 μM of CC(C)c1cc2c(c(O)c1O)[C@@]1(C(=O)O)CCCC(C)(C)[C@@H]1CC2 [CA, Carnosic acid] , please.
Output: 1.45

---

- assay_name: Trans-enterocyte transport of CA in Caco-2 cell monolayer
- Format: in vitro ADME, human
- applied_conditions: human, Caco-2, CA 50 μM, 3.0 h; read-out: Papp AP-BL
recorded_endpoint: Papp A→B at 3 h, 50 μM (×10⁻⁶ cm/s)
Lab book: enter the figure in ×10⁻⁶ cm/s, no units written.

Task: Recorded Papp A→B at 3 h, 50 μM of CC(C)c1cc2c(c(O)c1O)[C@@]1(C(=O)O)CCCC(C)(C)[C@@H]1CC2 [CA, Carnosic acid] , please.
Output: 0.22
